Attribution: patent US6737383B1

test system: morningglory; test: Test B pre/postemergence morningglory; assay type: in vivo, Ipomoea hederacea; conditions: Preemergence, Rate 250 g/ha; scale of 0 to 10 where 0 is no effect and 10 is complete control
I'd appreciate it if you could supply Plant response rating, Morningglory values for the items below.
Lab note: jot the number down without any unit.

System morningglory. Read-out Plant response rating, Morningglory. Item "CC(C)N(C(=O)n1oc(=O)n(-c2cccc3c2CCCC3)c1=O)c1ccc(F)cc1" . Report value. 0

System morningglory. Read-out Plant response rating, Morningglory. Item "CC(C)N(C(=O)n1oc(=O)n(Cc2ccccc2)c1=O)c1ccc(F)cc1F" . Report value. 0

System morningglory. Read-out Plant response rating, Morningglory. Item "Cc1cccc(C(C)C)c1-n1c(=O)on(C(=O)N(c2ccc(F)cc2)C(C)C)c1=O" . Report value. 0

System morningglory. Read-out Plant response rating, Morningglory. Item "CC(C)N(C(=O)n1oc(=O)n(C2CCCCC2)c1=O)c1ccccc1" . Report value. 2

System morningglory. Read-out Plant response rating, Morningglory. Item "CCN(CC)C(=O)n1oc(=O)n(-c2c(C)cccc2C)c1=O" . Report value. 0

System morningglory. Read-out Plant response rating, Morningglory. Item "CCN(Cc1ccccc1)C(=O)n1oc(=O)n(-c2c(C)cccc2C)c1=O" . Report value. 0

System morningglory. Read-out Plant response rating, Morningglory. Item "CC(C)N(C(=O)n1oc(=O)n(Cc2cccs2)c1=O)c1ccc(F)cc1F" . Report value. 0

System morningglory. Read-out Plant response rating, Morningglory. Item "COc1ccc(-n2c(=O)on(C(=O)N(c3ccc(F)cc3F)C(C)C)c2=O)c(OC)c1" . Report value. 2

System morningglory. Read-out Plant response rating, Morningglory. Item "CCN(CC)C(=O)n1oc(=O)n(-c2cc(Cl)cc(Cl)c2)c1=O" . Report value. 0

====

system: bamyardgrass; experiment: Test B flood test barnyardgrass; format: in vivo, Echinochloa crus-galli; details: Rate 62 g/ha, headed Pre-emergence (flood test species); scale 0 to 10 (0 no effect, 10 complete control)
I'd appreciate it if you could supply Barnyardgrass plant response rating values for the items below.
Lab note: jot the number down without any unit.

Identify Barnyardgrass plant response rating associated with the molecule "CCN(C(=O)n1oc(=O)n(Cc2ccco2)c1=O)C1CCCCC1" 0

Identify Barnyardgrass plant response rating associated with the molecule "CCCCCn1c(=O)on(C(=O)N(c2ccc(F)cc2)C(C)C)c1=O" 3

Identify Barnyardgrass plant response rating associated with the molecule "CC(C)N(C(=O)n1oc(=O)n(Cc2nnsc2Cl)c1=O)c1ccccc1" 0

Identify Barnyardgrass plant response rating associated with the molecule "COCn1c(=O)on(C(=O)N(c2ccc(F)cc2)C(C)C)c1=O" 0

====

test system: blackgrass; test: Test B pre/postemergence blackgrass; assay type: in vivo, Alopecurus myosuroides; settings: Rate 62 g/ha, Postemergence; scale of 0 to 10 where 0 is no effect and 10 is complete control
ATTRIBUTE MEASURED: Blackgrass plant response rating
Lab note: jot the number down without any unit.

Identify Blackgrass plant response rating associated with the compound CC(C)N(C(=O)n1oc(=O)n(-c2cccnc2)c1=O)c1ccccc1 [Compound 235] 0

Identify Blackgrass plant response rating associated with the compound CC(C)N(C(=O)n1oc(=O)n(C)c1=O)c1ccc(F)cc1 [Compound 138] 7

Identify Blackgrass plant response rating associated with the compound CC(C)N(C(=O)n1oc(=O)n(N(C)C)c1=O)c1ccc(F)cc1 [Compound 170] 9

Identify Blackgrass plant response rating associated with the compound CC(C)N(C(=O)n1oc(=O)n(C[Si](C)(C)c2ccccc2)c1=O)c1ccc(Cl)cc1 [Compound 424] 0

Identify Blackgrass plant response rating associated with the compound CCOC(=O)C=CCn1c(=O)on(C(=O)N(c2ccc(F)cc2)C(C)C)c1=O [Compound 214] 1

Identify Blackgrass plant response rating associated with the compound CC(C)=CCCC(C)=CCn1c(=O)on(C(=O)N(c2ccc(F)cc2)C(C)C)c1=O [Compound 262] 0

Identify Blackgrass plant response rating associated with the compound CC(C)N(C(=O)n1oc(=O)n([C@@H](C)c2ccccc2)c1=O)c1ccc(F)cc1 [Compound 167] 0

Identify Blackgrass plant response rating associated with the compound CCc1ccc(N(C(=O)n2oc(=O)n(-c3ccccc3C)c2=O)C(C)C)cc1 [Compound 230] 0

Identify Blackgrass plant response rating associated with the compound CC(C)N(Cc1ccccc1)C(=O)n1oc(=O)n(C(C)C)c1=O [Compound 165] 0

Identify Blackgrass plant response rating associated with the compound CCOC(=O)C(C)N(C(=O)n1oc(=O)n(CC)c1=O)c1ccc(F)cc1 (stereo not shown) [Compound 248] 0

Identify Blackgrass plant response rating associated with the compound Cc1nsc(C)c1-n1c(=O)on(C(=O)N(c2ccc(F)cc2)C(C)C)c1=O [Compound 157] 0

Identify Blackgrass plant response rating associated with the compound CC(C)N(C(=O)n1oc(=O)n(-c2cccnc2)c1=O)c1ccc(F)cc1 [Compound 234] 0

Identify Blackgrass plant response rating associated with the compound CC(=O)OCCCCn1c(=O)on(C(=O)N(c2ccc(F)cc2)C(C)C)c1=O [Compound 211] 2

Identify Blackgrass plant response rating associated with the compound CC(C)N(C(=O)n1oc(=O)n(CC#N)c1=O)c1ccccc1 [Compound 434] 0

Identify Blackgrass plant response rating associated with the compound CC(C)N(C(=O)n1oc(=O)n(-c2cnn(C)c2)c1=O)c1ccccc1 [Compound 123] 2

Identify Blackgrass plant response rating associated with the compound Cc1ccccc1N(C(=O)n1oc(=O)n(-c2ccccc2C)c1=O)C(C)C [Compound 236] 0
